Value source: ChEMBL document CHEMBL3751776

// values below are reported pIC50
target_desc: Fibroblast growth factor receptor 1 (Homo sapiens, UniProt P11362)
Sequence (P11362 whole entry): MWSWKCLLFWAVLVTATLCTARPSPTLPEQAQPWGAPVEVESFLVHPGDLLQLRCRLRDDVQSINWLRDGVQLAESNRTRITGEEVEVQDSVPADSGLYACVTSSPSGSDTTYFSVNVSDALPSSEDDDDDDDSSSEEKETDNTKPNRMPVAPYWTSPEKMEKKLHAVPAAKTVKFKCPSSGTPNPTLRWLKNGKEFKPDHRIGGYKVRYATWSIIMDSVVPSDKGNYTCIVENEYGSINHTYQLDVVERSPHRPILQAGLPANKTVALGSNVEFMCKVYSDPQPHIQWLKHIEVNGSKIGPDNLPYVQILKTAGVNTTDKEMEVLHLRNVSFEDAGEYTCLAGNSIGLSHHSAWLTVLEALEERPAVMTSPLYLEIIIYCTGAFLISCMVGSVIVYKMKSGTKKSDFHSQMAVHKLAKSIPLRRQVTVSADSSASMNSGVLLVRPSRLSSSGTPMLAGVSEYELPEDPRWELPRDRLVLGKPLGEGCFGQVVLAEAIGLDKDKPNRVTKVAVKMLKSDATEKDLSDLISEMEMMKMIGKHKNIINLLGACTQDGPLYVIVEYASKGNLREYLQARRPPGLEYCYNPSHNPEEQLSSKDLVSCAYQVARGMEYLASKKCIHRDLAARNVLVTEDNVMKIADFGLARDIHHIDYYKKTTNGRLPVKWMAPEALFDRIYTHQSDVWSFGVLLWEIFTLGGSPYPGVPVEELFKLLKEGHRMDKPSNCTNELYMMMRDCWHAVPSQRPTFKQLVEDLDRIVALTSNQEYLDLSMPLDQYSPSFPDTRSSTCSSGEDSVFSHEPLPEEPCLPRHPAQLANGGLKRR
assay_method_text: Inhibition of FGFR1 (unknown origin) incubated for 1 hr assessed as luminescence changes using ATP by ADP-Glo Kinase assay
// pIC50: -log10(molar conc.)

Guide cases for pIC50, answers given:
>  <smiles_code>
O=C(Nc1nccs1)Nc1cc(-c2cncnc2)ccc1OC(F)(F)F

>  <experimental_endpoint>
pIC50

>  <reading>
6.81

$$$$
>  <smiles_code>
Cn1cnc(-c2ccc(OC(F)(F)F)c(NC(=O)Nc3ccncc3)c2)c1

>  <experimental_endpoint>
pIC50

>  <reading>
6.43

$$$$

(Q) In one line, give reported pIC50 of the entry O=C(Nc1ccncc1)Nc1cc(-c2cncnc2)cc(C(F)(F)F)c1 .
(A) 7.55

(Q) Recall and state the measured pIC50 for O=C(Nc1ccncc1)Nc1cc(-c2cccnc2)cc(C(F)(F)F)c1 .
(A) 6.86

(Q) Give the reported value of pIC50 for this record: O=C(Nc1cc(-c2cccnc2)cc(C(F)(F)F)c1)Nc1nccs1
(A) 7.00

(Q) Kindly indicate its recorded pIC50. Item: O=C(Nc1ccncc1)Nc1cc(-c2cncnc2)ccc1OC(F)(F)F
(A) 7.49
